- targetUnderTest: T1, CD79b endogenously expressed on the cell surface (malignant B cell lines, normal B cells in PBMC, CLL … (human, UniProt P40259 29-229))
- T1 construct: whole, on cells; On cells CD79b stands in the B-cell receptor complex with CD79a and surface Ig; also called cell surface CD79b; endogenous CD79b
- T1 sequence (looked up): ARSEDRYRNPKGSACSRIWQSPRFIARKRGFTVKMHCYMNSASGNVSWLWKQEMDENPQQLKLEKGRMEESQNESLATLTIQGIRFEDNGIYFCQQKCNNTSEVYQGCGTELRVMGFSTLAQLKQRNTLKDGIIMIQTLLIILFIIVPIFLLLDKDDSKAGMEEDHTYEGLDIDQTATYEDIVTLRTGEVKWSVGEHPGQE
- protocolSummary: flow cytometry on PBMC of CLL Donor 0255 (B lymphocytes); PE goat anti-human IgG Fc; MFI PE
measurementKind: EC50 (read off the curve)

[
  {
    "binder": "ch48H10 (antibody, human IgG1, kappa, V domains shown, Rabbit/human chimeric IgG1 kappa; also called chimeric 48H10) VH: QSVKETGGGLVQPGGSLTLSCKASGFTINIDYWISWVRQAPGKGLEWIGIIDPGDGTTYFAIWVSGRFTISTDNAQNTVDLQMNSLTAADTATYFCAREFSASAYQYDLWGPGTLVTVSS VL: ALVMTQTPSSVSAAVGGTVSINCQASEDIESYLTWYQQKPGQPPKLLMYRASTLSSGVSSRFSASGSGTEFTLTISGVQPDDAATYYCQQGYRNKDVDNPFGGGTEVVVKR",
    "measurementKind": "EC50 (read off the curve)",
    "testResult": "~0.9 nM"
  }
]

Hello, the source for this data is patent US20260209346A1, in case you need it.
